# protocol.notes: qHTS for Inhibitors of TGF-b: Cytotox Counterscreen
# assay.setup: HepG2 CAGA-GFP viability, ATP luminescence, 18 h; series mostly up to 46.1 µM
About 3,100 (0.76%) of roughly 410,000 compounds were called active. The call rests on the fitted dose curve; in most records, active means well fitted cell-killing curve with a large enough effect; inactive means no such curve, though single readings can be large or run the other way. Only a selection was taken, and actives are over-represented in it overall.
Outcome codes: active, inactive

[[record]]
smiles_code = "C(=Nc1ccc(/C=C/c2ccnc3ccccc23)cc1)Nc1ccc(/C=C/c2ccnc3ccccc23)cc1"
group_label = "inactive"

[[record]]
smiles_code = "O=C(Nc1nc2ccc(F)cc2s1)c1nc(SCc2ccccc2F)ncc1Cl"
group_label = "inactive"

[[record]]
smiles_code = "Fc1ccc(Nc2nc(SCc3ccccc3Cl)nc3ccccc23)cc1"
group_label = "active"

[[record]]
smiles_code = "O=C(c1ccc2ccccc2n1)N1CCN(c2ccccc2Cl)CC1"
group_label = "inactive"

[[record]]
smiles_code = "Cc1cccc(N2CCN(C(=O)c3cc4c(=O)[nH]c5ccccc5c4n3C)CC2)c1C"
group_label = "inactive"

